Molecular target: TcC (Trypanosoma cruzi)
Sequence (Q4DGA3 1-221): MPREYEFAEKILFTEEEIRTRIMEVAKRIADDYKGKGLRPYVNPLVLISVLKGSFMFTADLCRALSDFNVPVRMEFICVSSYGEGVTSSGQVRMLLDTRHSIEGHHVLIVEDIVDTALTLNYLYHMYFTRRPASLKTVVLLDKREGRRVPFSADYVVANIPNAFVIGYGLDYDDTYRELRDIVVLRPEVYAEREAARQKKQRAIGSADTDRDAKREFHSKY
observed-property: pKi
Interpret pKi as the negative base-10 log of the concentration measured in mol/L.

stdin: # get_value(readout='pKi', item= O=P(O)(O)OC[C@H]1O[C@H](OP(=O)(O)OP(=O)(O)O)[C@H](O)[C@@H]1O [PRPP, 5-phospho-α-D-ribose 1-diphosphate] )
stdout: 6.10

====

molecular target: T. cruzi HGPRT (Trypanosoma cruzi)
observed-property: Ki (µM)
Form entry: value (µM) — number only.

stdin: Given the entry "CN(Cc1c[nH]c2c(=O)[nH]cnc12)[C@H](CO)CCP(=O)(O)O.N.N" , what Ki was observed with T. cruzi HGPRT (Trypanosoma cruzi)?
stdout: 1.44

====

target: PfHGXPRT (Plasmodium falciparum)
Sequence (P20035 whole entry): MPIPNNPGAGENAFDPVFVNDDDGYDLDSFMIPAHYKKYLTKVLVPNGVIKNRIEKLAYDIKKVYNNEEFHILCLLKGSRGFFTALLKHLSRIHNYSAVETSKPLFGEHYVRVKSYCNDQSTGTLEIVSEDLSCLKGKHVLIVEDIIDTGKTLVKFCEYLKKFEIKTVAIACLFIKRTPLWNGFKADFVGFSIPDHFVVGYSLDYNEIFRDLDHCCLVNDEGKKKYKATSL
observed-property: Ki (nM)
Form entry: value (nM) — number only.

stdin: # get_value(readout='Ki', item= CN(Cc1c[nH]c2c(=O)[nH]cnc12)[C@H](CO)CCP(=O)(O)O.N.N [Compound 4] )
stdout: 108

Reference for the values: paper PMC9536471
